Test: Viability qHTS for spleen associated tyrosine kinase inhibitor (SYKi) naive MV4-11 cells (AID 1963823); further: nearly all actives have a fitted effect of over 40% in size
Conditions: MV4-11 AML viability, CellTiter-Glo luminescence, 72 h; series mostly up to 45 µM
Records with an inconclusive call do not appear. Activity calls are given as the source filed them. The call rests on the fitted dose curve; in most records, active means well fitted cell-killing curve with a large enough effect; inconclusive means small, poorly fitted or top-dose-only effect, or effect the other way; inactive means no such curve, though single readings can be large or run the other way. Square brackets hold non-standard residues; d marks the D form. Peptide text beside a SMILES is read from it. * marks the point of attachment. Nva = CCC[C@H](N)C(=O)O; Cbz = O=C(OCc1ccccc1)*
Possible outcomes: 1 (yes) for active, 0 (no) for inactive

COMPOUND	CAT
CC1=C2C[C@H]3[C@@H](CC[C@@H]4C[C@H](NS(C)(=O)=O)CC[C@@]43C)[C@@H]2CC[C@@]2(C1)O[C@@H]1C[C@H](C)CN[C@H]1[C@H]2C	1 (yes)
Nc1ccc(S(=O)(=O)Nc2cnc3ccccc3n2)cc1	0 (no)
CCC[C@@H](C=O)NC(=O)[C@H](CC(C)C)NC(=O)[C@H](CC(C)C)NC(=O)OCc1ccccc1 (Cbz-Leu-Leu-[Nva]-aldehyde)	1 (yes)
CN[C@H]1CCN(C(=O)c2ccc(Nc3ncc(F)c(-c4cnc(C)n4C(C)C)n3)cc2)C1	1 (yes)
COC(=O)C1=COC(OC2OC(CO)C(O)C(O)C2O)C2C1C=CC2(O)CO (stereo unspecified)	0 (no)
O=C(/C=C/c1ccc(O)cc1)OC[C@H]1O[C@@H](O/C(=C\c2ccccc2)C(=O)O)[C@H](O)[C@@H](O)[C@@H]1O	0 (no)
C=C1CC[C@@H]2[C@](C)(CO)[C@H](O)CC[C@@]2(C)[C@@H]1/C=C/C1=CCOC1=O	0 (no)
C=C[C@H]1[C@H](O[C@@H]2O[C@H](CO)[C@@H](O)[C@H](O)[C@H]2O)OC=C(C(=O)OC)[C@H]1C/C=C(/C=O)[C@@H]1C(C(=O)OC)=CO[C@@H](O[C@@H]2O[C@H](CO)[C@@H](O)[C@H](O)[C@H]2O)[C@@H]1C=C	0 (no)
CC1(C)CC[C@]2(C(=O)O)CC[C@]3(C)C(=CCC4[C@@]5(C)CC[C@H](O[C@@H]6O[C@H](C(=O)O)[C@@H](O)[C@H](O)[C@H]6O)C(C)(CO)C5CC[C@]43C)C2C1 (stereo partly specified)	0 (no)
CCc1c(-c2ccccc2C)nc2c(C#N)c[nH]n2c1=O	0 (no)
NC(=O)c1cccnc1	0 (no)
CC(=O)OCC(Cc1ccccc1)NC(=O)C(Cc1ccccc1)NC(=O)c1ccccc1 (stereo unspecified)	0 (no)
COC1CC(O[C@H]2CC[C@]3(C)C4CC[C@]5(C)C(C6=CC(=O)OC6)=CCC56OC46CC[C@@H]3C2)OC(C)C1O[C@@H]1O[C@H](CO[C@@H]2O[C@H](CO)[C@@H](O)[C@H](O)[C@H]2O)[C@@H](O)[C@H](O)[C@H]1O (stereo partly specified)	1 (yes)
O=C1CCc2ccc(OCCCCN3CCN(c4cccc(Cl)c4Cl)CC3)cc2N1	1 (yes)
OC[C@H]1O[C@@H](S[C@@H]2O[C@H](CO)[C@H](O)[C@H](n3cc(-c4cccc(F)c4)nn3)[C@H]2O)[C@H](O)[C@@H](n2cc(-c3cccc(F)c3)nn2)[C@H]1O	0 (no)
OCc1ccc(O[C@@H]2O[C@H](CO)[C@@H](O)[C@H](O)[C@H]2O)cc1	0 (no)
O=S(=O)(Cc1ccccc1)Nc1ccc(-c2ccc3c(cnn3-c3ccc(F)cc3)c2)c(C(F)(F)F)c1	1 (yes)
O=C(O)c1ccccc1O	0 (no)
CNC(=O)c1ccc2cc(C3(O)CCn4cncc43)ccc2c1 (stereo unspecified)	0 (no)
NC(=O)c1cccc2c(NC(CN3CCC3)c3ccc(Cl)c(C(F)(F)F)c3)ncnc12 (stereo unspecified)	1 (yes)
COc1ccc(CC(NC(C)=O)C(=O)O)cc1 (stereo unspecified)	0 (no)
COc1cc(C(C)=O)c(OC)c2c1OC(C)(C)C=C2	0 (no)
O=C1CN(/N=C/c2ccc([N+](=O)[O-])o2)C(=O)N1	0 (no)
C=C1C[C@H]2[C@@H]3C=C(C)C4=CC(=O)CC[C@]4(C)[C@H]3CC[C@]2(C)[C@@]1(OC(C)=O)C(C)=O	1 (yes)
c1ccc(-c2cc(CCC3CCNCC3)c3ccccc3n2)cc1	1 (yes)
CCOc1nc2cccc(C(=O)OCc3oc(=O)oc3C)c2n1Cc1ccc(-c2ccccc2-c2noc(O)n2)cc1	0 (no)
O=C1c2c(O[C@@H]3O[C@H](CO)[C@@H](O)[C@H](O)[C@H]3O)cc(O)cc2OC1(O)Cc1ccc(O)cc1 (stereo partly specified)	1 (yes)
Oc1ccc(C(O)CNCCCCCCNCC(O)c2ccc(O)c(O)c2)cc1O (stereo unspecified)	0 (no)
CC1(C)C2CC(OC3OC(COC4OCC(O)(CO)C4O)C(O)C(O)C3O)C1(C)CC2O (stereo unspecified)	0 (no)
CC(=O)OCCC(C)CCC1C(C)(O)CCC2C(C)(C)CCCC21C (stereo unspecified)	0 (no)
CC(=O)O[C@H]1CC(C)(C)CC2[C@]13CO[C@@]21CCC2[C@@]4(C)CC[C@H](O[C@@H]5OC[C@H](O[C@@H]6O[C@H](CO)[C@@H](O)[C@H](O)[C@H]6O[C@@H]6OC[C@@H](O[C@@H]7O[C@H](CO)[C@@H](O)[C@H](O)[C@H]7O)[C@H](O)[C@H]6O)[C@H](O)[C@H]5O[C@@H]5O[C@H](CO)[C@@H](O)[C@H](O)[C@H]5O)[C@@](C)(CO)C4CC[C@@]2(C)[C@]1(C)C[C@H]3O (stereo partly specified)	1 (yes)
